Recorded values, source patent US5202456A.

Measured pKi accompanies every entry in the list below.
system-under-test: ROS methyltransferase (bovine retinal rod outer segment S-adenosyl-L-methionine-dependent methyltransferase) (Bos taurus, UniProt A0AAA9SD88)
Construct: utilizing ROS membranes as the source of methyltransferase enzyme; tissue Wanda Lawson Co., Lincoln, Nebr; (frozen bovine retinas); host or cells: bovine retinal rod outer segment (ROS) membranes
Sequence (A0AAA9SD88 1-284): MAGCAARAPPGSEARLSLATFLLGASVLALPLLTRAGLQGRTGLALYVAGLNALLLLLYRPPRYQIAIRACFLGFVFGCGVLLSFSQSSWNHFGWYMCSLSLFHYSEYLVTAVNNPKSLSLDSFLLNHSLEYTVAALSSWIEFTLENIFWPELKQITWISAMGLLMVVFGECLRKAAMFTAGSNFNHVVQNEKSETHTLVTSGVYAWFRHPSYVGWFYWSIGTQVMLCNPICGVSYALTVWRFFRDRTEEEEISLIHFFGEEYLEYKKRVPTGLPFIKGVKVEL
test: ROS methyltransferase assay: compounds as substrates (Km) or inhibitors (Ki) of AFC methylation
Format: biochemical
assay-context: calculated; read-out: Ki for inhibition of AFC methylation
pKi: −log10 of the molar value.

# molecule, pKi
rows = [
    ("CC(=O)N[C@@H](C[S+]([O-])C/C=C(\\C)CC/C=C(\\C)CCC=C(C)C)C(=O)O (stereo partly drawn) [AFCS, N-acetyl-S-oxo-farnesylcysteine]", 4.94),
    ("CC(C)=CCC/C(C)=C/CC/C(C)=C/CSCC(=O)O [FTA, 2-farnesylthioacetic acid]", 5.34),
    ("CC(=O)N[C@@H](CCSC/C=C(\\C)CC/C=C(\\C)CCC=C(C)C)C(=O)O [AFHC, N-acetyl-S-farnesylhomocysteine]", 4.52),
]
